Origin of the recorded values: patent US20220048991A1

Target: T1, recombinant ILT2 (human) (human, UniProt Q8NHL6 24-461)
T1 construct: also called recombinant ILT2 peptide; ILT2 protein
T1 sequence (Q8NHL6 24-461 limits assumed): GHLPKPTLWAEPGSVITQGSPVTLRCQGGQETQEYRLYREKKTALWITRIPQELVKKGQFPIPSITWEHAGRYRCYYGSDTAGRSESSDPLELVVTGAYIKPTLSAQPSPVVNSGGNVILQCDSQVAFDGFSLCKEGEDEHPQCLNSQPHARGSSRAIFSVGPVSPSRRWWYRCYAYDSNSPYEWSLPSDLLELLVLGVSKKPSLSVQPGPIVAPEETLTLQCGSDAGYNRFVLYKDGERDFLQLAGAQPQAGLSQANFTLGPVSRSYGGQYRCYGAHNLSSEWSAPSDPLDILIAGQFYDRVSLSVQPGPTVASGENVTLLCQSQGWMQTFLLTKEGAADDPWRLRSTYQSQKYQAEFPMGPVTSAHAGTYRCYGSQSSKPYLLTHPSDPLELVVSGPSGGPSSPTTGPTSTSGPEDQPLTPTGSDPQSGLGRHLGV
Assay: SPR (Biacore T200), HEK EBNA supernatants on recombinant ILT2 peptide
Exercise: for every item that follows, state its recorded Kd.
One number for each entry, in nM.

Please review the entries below; each comes with its answer.
humanized 15G8 VH3/Vk3 (antibody, IgG4, V domains shown, Humanized IgG4 (S228P, L235E), kappa; tested as supernatant of transiently transfected HEK EBNA cells) VH: DVQLQGSGPGLVKPSETLSLTCSVTGYSITSGYYWNWIRQPPGKGLEWMGYISYDGSNNYNPSLKNRITISRDTSKNQFSLKLSSVTAADTATYYCAHGYSYYYAMDAWGQGTTVTVSS VL: DIQMTQSPSSLSASVGDRVTITCRTSQDISNYLNWYQQKPGKAVKLLISYTSRLHSGVPSRFSGSGSGTDYTLTISSLQPEDFATYYCQQGNTLPTFGQGTKLEIK: 9.03
15G8-54 (humanized 15G8, VH5/Vk4) (antibody, IgG4, V domains shown, Humanized IgG4 (S228P, L235E), kappa) VH: QVQLQGSGPGLVKPSETLSLTCTVTGYSITSGYYWNWIRQPPGKGLEWIGYISYDGSNNYNPSLKNRVTISRDTSKNQFSLKLSSVTAADTATYYCAHGYSYYYAMDAWGQGTTVTVSS VL: DIQMTQSPSSLSASVGDRVTITCRTSQDISNYLNWYQQKPGKAPKLLISYTSRLHSGVPSRFSGSGSGTDYTLTISSLQPEDFATYFCQQGNTLPTFGQGTKLEIK: 10.3

With those in mind, consider the next binder.
Q. Would you mind telling me what Kd value was observed for humanized 15G8 VH4/Vk1 (antibody, IgG4, V domains shown, Humanized IgG4 (S228P, L235E), kappa; tested as supernatant of transiently transfected HEK EBNA cells) VH: QVQLQGSGPGLVKPSETLSLTCSVTGYSITSGYYWNWIRQPPGKGLEWMGYISYDGSNNYNPSLKNRVTISRDTSKNQFSLKLSSVTAADTATYYCAHGYSYYYAMDAWGQGTTVTVSS VL: DIQMTQSTSSLSASVGDRVTITCRTSQDISNYLNWYQQKPGKAVKLLISYTSRLHSGVPSRFSGSGSGTDYTLTISSLQQEDFATYFCQQGNTLPTFGQGTKLEIK ?
A. 8.66
